Source listed as paper PMC8809517.

Recorded pKd values for a group of binders are listed next.
- TARGET OF ASSAY: T1, GFP-9S library array, motif 4 ND N98Q;D124V (synthetic construct, N98Q;D124V)
- T1 chain: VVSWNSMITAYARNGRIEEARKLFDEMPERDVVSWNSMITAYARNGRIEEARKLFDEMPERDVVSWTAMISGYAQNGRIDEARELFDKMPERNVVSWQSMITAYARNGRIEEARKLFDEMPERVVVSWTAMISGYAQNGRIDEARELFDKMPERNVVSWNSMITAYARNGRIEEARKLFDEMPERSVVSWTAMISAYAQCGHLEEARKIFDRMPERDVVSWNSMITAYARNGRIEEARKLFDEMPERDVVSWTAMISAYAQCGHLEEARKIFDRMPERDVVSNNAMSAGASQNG
- ASSAY EXPLANATION: high-throughput RNA pulldown from lysate on Ni-NTA beads; HRP: 50 mM Tris pH 8, 150 mM NaCl, 1 mM beta-mercaptoethanol, 50 ug/ml BSA, 3 ug/ml yeast RNA, 0.5% heparin; ITC and FP: Tris pH 8, 200 mM KCl, 5% glycerol; MST: 50 mM Tris pH 8, 200 mM NaCl, 1 mM DTT, BSA, heparin, 0.05% Tween 20
- CONDITION SUMMARY: tags: N-terminal His-eGFP; label: 5' IRDye 800CW
Note on units: pKd is unitless, being -log10 of a concentration expressed in mol/L.

AUUAAACGUGA (ssRNA) [IR-rpoA-A]	5.39

Please supply the value of reported pKd for the item AUUAUACGUGA (ssRNA) [IR-rpoA-U]
5.50
